Provenance of the data: patent US20250034136A1

Listed next: entries and their corresponding IC50.
- tgt: WRN (BV08), human Werner helicase (Uniprot Q14191, amino acids 517-1235 with L1074F point mutation) (Homo sapiens (Human), UniProt Q14191, L1074F)
- Sequence (Q14191 other isoform, or with tags, fused parts or gaps L1074F (already in the parent)): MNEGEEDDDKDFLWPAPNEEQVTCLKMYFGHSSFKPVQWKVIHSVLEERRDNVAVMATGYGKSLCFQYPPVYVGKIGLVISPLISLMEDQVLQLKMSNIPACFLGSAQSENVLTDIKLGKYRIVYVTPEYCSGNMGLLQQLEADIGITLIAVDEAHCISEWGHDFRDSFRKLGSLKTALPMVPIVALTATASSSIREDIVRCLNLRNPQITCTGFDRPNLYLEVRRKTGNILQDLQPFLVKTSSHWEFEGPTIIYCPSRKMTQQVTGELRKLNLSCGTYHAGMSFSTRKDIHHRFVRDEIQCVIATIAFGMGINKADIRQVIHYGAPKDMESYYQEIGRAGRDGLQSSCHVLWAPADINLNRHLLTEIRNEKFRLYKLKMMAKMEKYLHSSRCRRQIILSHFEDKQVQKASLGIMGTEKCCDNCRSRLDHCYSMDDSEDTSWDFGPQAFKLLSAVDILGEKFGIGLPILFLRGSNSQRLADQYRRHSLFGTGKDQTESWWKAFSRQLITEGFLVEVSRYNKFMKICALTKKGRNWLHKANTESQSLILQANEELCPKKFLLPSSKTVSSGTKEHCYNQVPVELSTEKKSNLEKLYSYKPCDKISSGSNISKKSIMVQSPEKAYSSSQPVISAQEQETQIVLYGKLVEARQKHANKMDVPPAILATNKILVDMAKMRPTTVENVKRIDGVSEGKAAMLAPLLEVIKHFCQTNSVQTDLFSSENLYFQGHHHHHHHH
- testMethodNotes: WRN (BV08) ADP-Glo assay
- conditionsUsed: class symbols A-E, read-out: ADP-Glo_hWRN_IC50
- Excerpt: Bovine skin gelatin (BSG), dimethyl sulfoxide (DMSO), Pluronic F-127 and tris(2-carboxyethyl)phosphine hydrochloride solution (TCEP) were purchased from Sigma-Aldrich (St. Louis, MO) at the highest level of purity possible. […] The reaction was stopped by the addition of the ADP-Glo Kit components (Promega; Madison, WI) as directed and the relative luminescence units (RLU) were read on an Envision 2104 (Perkin Elmer; Waltham, MA). % inhibition calculation: […]
readoutType: IC50

CCc1c(N2CCN(C(=O)c3c(OCCOC)ncc(C)c3O)[C@H]3CC[C@@H]32)c(=O)c2nc(N(C)C)cnc2n1CC(=O)Nc1ccc(C(F)(F)F)cc1Cl	0.005 to 0.05 µM
CCc1c(N2CCN(C(=O)c3ncnc(C)c3O)CC2)c(=O)c2nc(N(C)C)c(C)nc2n1CC(=O)Nc1ccc(C(F)(F)F)cc1Cl	0.005 to 0.05 µM
CCc1c(N2CCN(C(=O)c3cc(C)cnc3OC)[C@H]3CC[C@@H]32)c(=O)c2nc(N(C)C)cnc2n1CC(=O)Nc1ccc(C(F)(F)F)cc1Cl	0.005 to 0.05 µM

* * *

Listed next: entries and their corresponding EC50.
- System: p21 induction in HCT116 cells
- testMethodNotes: p21 induction in HCT116 cells
- Assay type: cell-based
- conditionsUsed: Homo sapiens, HCT-116, 24 h, HCT116 cells, 24 h compound incubation; read-out: P21_EC50
readoutType: EC50

CCc1c(N2CCN(C(=O)c3ncnc(C)c3O)CC2)c(=O)c2nc(N3CC(O)C3)cnc2n1CC(=O)Nc1ccc(C(F)(F)F)cc1Cl [I-45]	> 5 µM
CCc1c(N2CCN(C(=O)c3ncnc(C)c3O)CC2)c(=O)c2nc(N3CC[C@H](O)C3)cnc2n1CC(=O)Nc1ccc(C(F)(F)F)cc1Cl [I-88]	> 5 µM
CCc1c(N2CCN(C(=O)c3ncnc(C)c3O)[C@H]3CC(F)(F)C[C@@H]32)c(=O)c2nc(N(C)C)cnc2n1CC(=O)Nc1ccc(C(F)(F)F)cc1Cl (racemic) [I-291]	2 to 5 µM
